testName: Acute toxicity in ICR mouse
experimentalSetup: in vivo

givenSmiles | unitSymbol | LD50
COc1c(Br)cc([C@@H]2c3cc4c(cc3C[C@H]3C(=O)NC(=O)N23)OCCO4)cc1Br | mg/kg | 86.2
COc1c(Cl)cc([C@@H]2c3cc4c(cc3C[C@H]3C(=O)NC(=O)N23)OCCO4)cc1Cl | mg/kg | 211

----------
Tested on: K562
testName: cells
experimentalSetup: Homo sapiens, K562, 72 h
Description: Antiproliferative activity against human K562 cells measured after 72 hrs by MTT assay
pIC50: −log10 of the molar value.
quantityKind: pIC50

givenSmiles | studyTarget | readoutQualifier | value
COc1cc([C@@H]2c3cc4c(cc3C[C@H]3COC(=O)N32)OCO4)cc(OC)c1OC | K562 | = | 7.70
COc1ccc([C@@H]2c3cc4c(cc3C[C@H]3COC(=O)N32)OCO4)cc1OC | K562 | = | 6.23
O=C1OC[C@@H]2Cc3cc4c(cc3[C@@H](c3ccncc3)N12)OCO4 | K562 | < | 5.30
COc1c(Br)cc([C@H]2c3cc4c(cc3C[C@H]3C(=O)NC(=O)N23)OCCO4)cc1Br | K562 | < | 5.30
CC(=O)O[C@H]1C(=O)[C@@]2(C)[C@H]([C@H](OC(=O)c3ccccc3)[C@]3(O)C[C@H](OC(=O)[C@H](O)[C@@H](NC(=O)c4ccccc4)c4ccccc4)C(C)=C1C3(C)C)[C@]1(OC(C)=O)CO[C@@H]1C[C@@H]2O | K562 | = | 7.53

----------
testName: MRT (0 to t) in Sprague-Dawley rat at 10 mg/kg, iv measured upto 8 hrs by LC/MS/MS analysis
Format: ADME, organism-based
experimentalSetup: in vivo

givenSmiles | MRT last at 8 h [h]
COc1c(Cl)cc([C@@H]2c3cc4c(cc3C[C@H]3C(=O)NC(=O)N23)OCCO4)cc1Cl | 1.79

----------
Tested on: K562
testName: cells
experimentalSetup: Homo sapiens, K562, 72 h
pIC50: −log10 of the molar value.
Each item that follows carries a reported pIC50.

givenSmiles | readoutQualifier | pIC50
CCN1C(=O)[C@@H]2Cc3cc4c(cc3[C@@H](c3cc(OC)c(OC)c(OC)c3)N2C1=O)OCO4 | < | 5.30
COc1c(Cl)cc([C@@H]2c3cc4c(cc3C[C@H]3C(=O)NC(=O)N23)OCCO4)cc1Cl | = | 8.20
COc1cc([C@@H]2c3cc4c(cc3C[C@H]3C(=O)N(C)C(=S)N23)OCO4)cc(OC)c1OC | < | 5.30
COc1cc([C@@H]2c3cc4c(cc3C[C@H]3COC(=O)N32)OCCCO4)cc2c1OCO2 | = | 6.71
COc1cc([C@@H]2c3cc4c(cc3C[C@H]3C(=O)NC(=O)N23)OCCO4)cc(F)c1OC | = | 7.53
O=C1OC[C@@H]2Cc3cc4c(cc3[C@@H](c3ccc(OC(F)F)c(OC(F)F)c3)N12)OCCO4 | = | 6.50
COc1c(Br)cc([C@@H]2c3cc4c(cc3C[C@H]3C(=O)NC(=O)N23)OCCO4)cc1Br | = | 8.28
COc1cc([C@@H]2c3cc4c(cc3C[C@H]3COC(=O)N32)OCO4)cc2c1OCO2 | = | 7.14
COc1cc([C@@H]2c3cc4c(cc3C[C@H]3C(=O)NC(=O)N23)OCO4)cc(OC)c1OC | = | 7.35
COc1c(Cl)cc([C@@H]2c3cc4c(cc3C[C@H]3COC(=O)N32)OCCO4)cc1Cl | = | 8.20
COc1cc([C@@H]2c3cc4c(cc3C[C@H]3COC(=O)N32)OCCCO4)cc(OC)c1OC | = | 6.97
COc1cc([C@@H]2c3cc4c(cc3C[C@H]3C(=O)NC(=O)N23)OCCO4)cc(OC)c1OC | = | 7.50
CCCN1CC(=O)N2[C@H](c3cc(OC)c(OC)c(OC)c3)c3cc4c(cc3C[C@H]2C1=O)OCCO4 | < | 5.30
COc1cc([C@@H]2c3cc4c(cc3C[C@H]3C(=O)NC(=O)N23)OCCO4)cc2c1OCO2 | = | 7.04
COc1cc([C@@H]2c3cc4c(cc3C[C@H]3COC(=O)N32)OCCO4)cc2c1OCO2 | = | 7.53
COc1cc([C@@H]2c3cc4c(cc3C[C@H]3COC(=O)N32)OCCO4)cc(F)c1OC | = | 7.87
COc1c(Br)cc([C@@H]2c3cc4c(cc3C[C@H]3COC(=O)N32)OCCO4)cc1Br | = | 8.17
COc1cc([C@@H]2c3cc4c(cc3C[C@H]3C(=O)NCC(=O)N23)OCO4)cc(OC)c1OC | = | 6.10
COc1ccc(/C=C\c2cc(OC)c(OC)c(OC)c2)cc1O | = | 7.95
COc1cc([C@@H]2c3cc4c(cc3C[C@H]3COC(=O)N32)OCO4)ccn1 | < | 5.30
CCN1C(=O)[C@@H]2Cc3cc4c(cc3[C@@H](c3cc(OC)c(OC)c(OC)c3)N2C1=S)OCO4 | < | 5.30
COc1cc([C@@H]2c3cc4c(cc3C[C@H]3COC(=O)N32)OCCO4)cc(OC)c1Br | = | 7.40
CCCN1CC(=O)N2[C@H](c3cc(OC)c(OC)c(OC)c3)c3cc4c(cc3C[C@H]2C1=O)OCO4 | < | 5.30
COc1cc2c(cc1OC)[C@@H](c1cc(OC)c(OC)c(OC)c1)N1C(=O)OC[C@@H]1C2 | < | 5.30
CCN1C(=O)[C@@H]2Cc3cc4c(cc3[C@@H](c3cc(OC)c(OC)c(OC)c3)N2C1=S)OCCO4 | < | 5.30
COc1cc([C@@H]2c3cc4c(cc3C[C@H]3COC(=O)N32)OCCO4)ccc1F | = | 6.81
O=C1OC[C@@H]2Cc3cc4c(cc3[C@@H](c3cc(C(F)(F)F)cc(C(F)(F)F)c3)N12)OCCO4 | = | 6.70
COc1cc([C@@H]2c3cc4c(cc3C[C@H]3C(=O)NC(=O)N23)OCCO4)cc([N+](=O)[O-])c1OC | = | 7.27
COc1cc([C@@H]2c3cc4c(cc3C[C@H]3COC(=O)[C@@H]32)OCO4)cc(OC)c1OC | = | 7.80
O=C1NC(=O)N2[C@H](c3cc(Cl)c(F)c(Cl)c3)c3cc4c(cc3C[C@@H]12)OCCO4 | = | 7.31
COc1cc([C@@H]2c3cc4c(cc3C[C@H]3C(=O)N(C)C(=S)N23)OCCO4)cc(OC)c1OC | < | 5.30
O=C1NC(=O)N2[C@H](c3cc(Cl)nc(Cl)c3)c3cc4c(cc3C[C@@H]12)OCCO4 | = | 6.37
COc1cc([C@@H]2c3cc4c(cc3C[C@H]3COC(=O)N32)OCO4)cc(OC)c1O | < | 5.30

Source: ChEMBL document CHEMBL5236615
